- Test system: c-Abl (mouse)
- assay.info: phosphorylation enrichment, bacterial display (enrichment ratio); higher = better substrate or ligand; peptides without Tyr show the background
reported.property: phosphorylation enrichment

[[record]]
primary_sequence = "MCVKSYTIHFS [F5_Y2153_Y2149C_YF]"
observed_value = 1.02

[[record]]
primary_sequence = "DGSALYTGSAL [COL6A3_Y524]"
observed_value = 0.459

[[record]]
primary_sequence = "TFHNTYHSHMR [IL1RAPL1_Y615_Q618H]"
observed_value = 0.538

[[record]]
primary_sequence = "NGPDVYVLPLT [AATK_Y93]"
observed_value = 0.645

[[record]]
primary_sequence = "SQQTFCRVSNM [ABCD1_Y181_Y181C_YF]"
observed_value = 0.567

[[record]]
primary_sequence = "EKIANYKEGTF [CLRN1_Y171_YF]"
observed_value = 0.543

[[record]]
primary_sequence = "ARVANYHRDGP [CAT_Y386_Q387H]"
observed_value = 0.457


* * *

- target.entity: Jak2 (UniProt O60674)
- Sequence (O60674 whole entry, looked up): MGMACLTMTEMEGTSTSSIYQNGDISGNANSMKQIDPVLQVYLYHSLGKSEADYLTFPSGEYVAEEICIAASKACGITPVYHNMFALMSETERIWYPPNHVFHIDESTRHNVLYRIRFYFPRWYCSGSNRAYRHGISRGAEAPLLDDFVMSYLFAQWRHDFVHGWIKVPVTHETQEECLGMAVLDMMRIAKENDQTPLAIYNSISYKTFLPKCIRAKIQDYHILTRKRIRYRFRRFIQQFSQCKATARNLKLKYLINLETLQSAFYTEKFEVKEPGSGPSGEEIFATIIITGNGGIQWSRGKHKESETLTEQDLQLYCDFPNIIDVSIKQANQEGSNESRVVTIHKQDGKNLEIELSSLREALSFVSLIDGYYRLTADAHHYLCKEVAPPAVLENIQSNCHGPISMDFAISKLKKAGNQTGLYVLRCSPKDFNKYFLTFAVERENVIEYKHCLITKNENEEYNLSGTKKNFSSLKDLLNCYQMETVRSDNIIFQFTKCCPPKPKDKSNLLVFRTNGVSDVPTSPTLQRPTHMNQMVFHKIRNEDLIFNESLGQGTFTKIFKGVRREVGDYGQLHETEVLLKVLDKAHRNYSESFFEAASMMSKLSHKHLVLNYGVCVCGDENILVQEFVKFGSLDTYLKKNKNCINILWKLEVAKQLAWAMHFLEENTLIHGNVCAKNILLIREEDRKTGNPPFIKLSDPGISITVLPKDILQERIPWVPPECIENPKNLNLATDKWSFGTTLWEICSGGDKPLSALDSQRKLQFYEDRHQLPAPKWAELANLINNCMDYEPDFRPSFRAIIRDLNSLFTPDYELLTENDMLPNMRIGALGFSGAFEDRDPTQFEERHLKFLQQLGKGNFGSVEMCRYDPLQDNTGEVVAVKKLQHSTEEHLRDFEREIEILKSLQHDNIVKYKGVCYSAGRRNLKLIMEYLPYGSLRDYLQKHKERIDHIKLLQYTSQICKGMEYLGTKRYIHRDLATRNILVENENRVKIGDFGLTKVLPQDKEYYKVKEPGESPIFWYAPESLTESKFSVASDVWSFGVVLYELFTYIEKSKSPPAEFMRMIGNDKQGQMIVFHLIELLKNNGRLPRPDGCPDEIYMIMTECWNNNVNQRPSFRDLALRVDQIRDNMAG
- assay.info: phosphorylation enrichment, bacterial display (enrichment ratio); higher = better substrate or ligand; peptides without Tyr show the background
reported.property: phosphorylation enrichment

[[record]]
primary_sequence = "NTSKMYIPHTD [EXPH5_Y782_D777N]"
target_entity = "Jak2 (UniProt O60674)"
observed_value = 0.562

[[record]]
primary_sequence = "IEENGYNTYAS [FGF10_Y161]"
target_entity = "Jak2 (UniProt O60674)"
observed_value = 0.802

[[record]]
primary_sequence = "VMVCAYLLHRG [PTEN_Y138_I135V]"
target_entity = "Jak2 (UniProt O60674)"
observed_value = 1.23

[[record]]
primary_sequence = "EKAEVYRSENE [RIOK2_Y348_G349R]"
target_entity = "Jak2 (UniProt O60674)"
observed_value = 0.863

[[record]]
primary_sequence = "SVVVCYEPPEV [TP53_Y220_P219C]"
target_entity = "Jak2 (UniProt O60674)"
observed_value = 1.07

[[record]]
primary_sequence = "QQTYTYDSGIH [JUP_Y22]"
target_entity = "Jak2 (UniProt O60674)"
observed_value = 1.2

[[record]]
primary_sequence = "VECQVYAEDPF [PCCA_Y401_R399Q_YF]"
target_entity = "Jak2 (UniProt O60674)"
observed_value = 0.99

[[record]]
primary_sequence = "GRQGIYKENER [GPR143_Y231_T232K]"
target_entity = "Jak2 (UniProt O60674)"
observed_value = 0.515

[[record]]
primary_sequence = "DYYDLYGGEKF [PTPN11_Y66]"
target_entity = "Jak2 (UniProt O60674)"
observed_value = 2.7

[[record]]
primary_sequence = "PAEPRYRARQR [KCNJ11_Y26]"
target_entity = "Jak2 (UniProt O60674)"
observed_value = 1

[[record]]
primary_sequence = "RRKRAYVEIEF [MAK16_Y282_Q277R_YF]"
target_entity = "Jak2 (UniProt O60674)"
observed_value = 0.593

[[record]]
primary_sequence = "EAVLHYKHQNQ [MTOR_Y1804]"
target_entity = "Jak2 (UniProt O60674)"
observed_value = 0.641

[[record]]
primary_sequence = "ENAGFYFRISA"
target_entity = "Jak2 (UniProt O60674)"
observed_value = 1.55

[[record]]
primary_sequence = "PLDGEHFTLQI [TP53_Y327_Y327H]"
target_entity = "Jak2 (UniProt O60674)"
observed_value = 1.43


* * *

Attribute: SH2 binding enrichment
- target.entity: SHP2-C SH2;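 note: peptide library displayed on the E. coli surface as eCPX fusions, selected cells deep-sequenced, score is each peptide's frequency after selection divided by its frequency in the input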
- assay.info: SH2 binding enrichment of the phosphorylated peptide, bacterial display (enrichment ratio); higher = better substrate or ligand; peptides without Tyr show the background
reported.property: SH2 binding enrichment

[[record]]
primary_sequence = "PKGWNYELPAT [PROM1_Y34_A31G]"
observed_value = 0.613

[[record]]
primary_sequence = "SVTCTYYPALN [TP53_Y126_S127Y]"
observed_value = 0.693

[[record]]
primary_sequence = "KDFTIHNPNLL [VANGL1_Y290_Y290H]"
observed_value = 0.553

[[record]]
primary_sequence = "KAWTIYRPEDS [ZBP1_Y165]"
observed_value = 0.719

[[record]]
primary_sequence = "IFHLSYLHNCE [PDE6B_Y227_YF]"
observed_value = 0.894

[[record]]
primary_sequence = "TTICKYITPME [GUCY2C_Y839_S840I]"
observed_value = 0.598

[[record]]
primary_sequence = "VFDHIYTTQSD [RET_Y928_L923V]"
observed_value = 0.864

[[record]]
primary_sequence = "RMSQRYGDVLQ [CYP1A2_Y72]"
observed_value = 0.518

[[record]]
primary_sequence = "SSWPDYVRPLP [HSPB1_Y54_G53D]"
observed_value = 0.71

[[record]]
primary_sequence = "VSYDEYRYRSF [CFTR_Y515_V520F]"
observed_value = 0.717

[[record]]
primary_sequence = "YSGIYYKPESL [L2HGDH_Y103_H98Y]"
observed_value = 10.5

[[record]]
primary_sequence = "IFLGAYDRFLP [SLC22A5_Y486_V481I_YF]"
observed_value = 1.22

[[record]]
primary_sequence = "TFGVLYKARNK [CDK2_Y19_V18L_YF]"
observed_value = 0.423

[[record]]
primary_sequence = "CKLVDYDSARH [BIN1_Y150_R145C]"
observed_value = 0.592


* * *

- Test system: c-Abl (mouse)
- assay.info: phosphorylation enrichment, bacterial display (enrichment ratio); higher = better substrate or ligand; peptides without Tyr show the background
Output true for phosphorylation enrichment not less than 0.8; output false otherwise.

[[record]]
primary_sequence = "PVVKLYATEGR [RP1_Y199_D202E]"
assigned_label = "false"

[[record]]
primary_sequence = "RMSQRYRDVLQ [CYP1A2_Y72_G73R]"
assigned_label = "false"

[[record]]
primary_sequence = "LERYIYNREEF [HLA-DPB1_Y59]"
assigned_label = "false"

[[record]]
primary_sequence = "DLLNSYIENEG [HSPA4L_Y600]"
assigned_label = "false"

[[record]]
primary_sequence = "SKQGKYLNWDA [ATM_Y54]"
assigned_label = "false"

[[record]]
primary_sequence = "WLFFRYLPIGC [ATP2A2_Y836_A838P]"
assigned_label = "false"

[[record]]
primary_sequence = "RGEKQYLATPL [ALOX12_Y295_A298T]"
assigned_label = "true"

[[record]]
primary_sequence = "VRFMAYTDEIF [F8_Y450_T454I]"
assigned_label = "true"

[[record]]
primary_sequence = "TKDTFHKQPMF [GBA_Y451_Y451H]"
assigned_label = "false"

[[record]]
primary_sequence = "DSILVYQRKEQ [USH2A_Y1909_G1911R]"
assigned_label = "false"

[[record]]
primary_sequence = "SHGQDYLAGNK [GSTA2_Y147_V149A]"
assigned_label = "false"

[[record]]
primary_sequence = "SMAKYYASGIA [ACADSB_Y373_E376G]"
assigned_label = "false"

[[record]]
primary_sequence = "TVNIRYLLFPS [SERAC1_Y548_S543T]"
assigned_label = "false"

[[record]]
primary_sequence = "KDGIGYISAAE [CALM2_Y100_N98I]"
assigned_label = "false"

[[record]]
primary_sequence = "TAALWYIYSHT [ENG_Y612]"
assigned_label = "false"

[[record]]
primary_sequence = "VQDPAYLRDIN [OPRK1_Y369_D374N]"
assigned_label = "false"

[[record]]
primary_sequence = "EQLQSYQVEII [KRT33A_Y268_A270V]"
assigned_label = "true"

[[record]]
primary_sequence = "CVAARYMDVKG [WFIKKN2_Y93]"
assigned_label = "false"

[[record]]
primary_sequence = "KDFTIYNPNLL [VANGL1_Y290]"
assigned_label = "false"

[[record]]
primary_sequence = "PRQRRYVFFFS [PTEN_Y174_S170R_YF]"
assigned_label = "false"

[[record]]
primary_sequence = "ASTDFYKRGDF [PDHA1_Y243_YF]"
assigned_label = "false"

[[record]]
primary_sequence = "EELLRYAIVTP [POC5_Y37_H36R]"
assigned_label = "false"

[[record]]
primary_sequence = "DFTSRYLNASD [PKHD1_Y828]"
assigned_label = "false"

[[record]]
primary_sequence = "SGDITYGQFAQ [PLCG1_Y210]"
assigned_label = "false"

[[record]]
primary_sequence = "LNLKDYNLVGG [GNAQ_Y356_E355D]"
assigned_label = "false"

[[record]]
primary_sequence = "DDKEFYSVHNK [MET_Y1235_Y1230D_YF]"
assigned_label = "true"

[[record]]
primary_sequence = "KDHLDYKFQPR [SOX9_Y172_P170L_YF]"
assigned_label = "false"

[[record]]
primary_sequence = "TLCLCYKETEE [ATP8B1_Y658_I661T]"
assigned_label = "true"

[[record]]
primary_sequence = "RHSGSYLVTSV [APC_Y2838]"
assigned_label = "false"

[[record]]
primary_sequence = "YFCRWYRNRKS [EREG_Y144]"
assigned_label = "false"

[[record]]
primary_sequence = "KLIETCFSKNY [PLP1_Y50_Y50C]"
assigned_label = "true"

[[record]]
primary_sequence = "LLASGYDSPIN [ABLIM1_Y638_R637G]"
assigned_label = "true"

[[record]]
primary_sequence = "RSHLPYDVTPE [IQGAP3_Y1098]"
assigned_label = "true"

[[record]]
primary_sequence = "RIVEIYTRRLQ [GCH1_Y175_S176T]"
assigned_label = "false"

[[record]]
primary_sequence = "NRLTDYYELLL [BBS10_Y536_P539L]"
assigned_label = "true"

[[record]]
primary_sequence = "EGTGHYLCNAC [GATA5_Y208_D203E]"
assigned_label = "false"

[[record]]
primary_sequence = "HGDDDYDDPEL [CLNK_Y69_S65G]"
assigned_label = "false"

[[record]]
primary_sequence = "LNCIFYKDQTG [RS1_Y166_W163C_YF]"
assigned_label = "true"

[[record]]
primary_sequence = "EAVLHYKHQNQ [MTOR_Y1804]"
assigned_label = "false"

[[record]]
primary_sequence = "YQLPYYNMVPS [BMPR1A_Y458]"
assigned_label = "true"

[[record]]
primary_sequence = "LTSKPYAFTAR [NDUFS1_Y236]"
assigned_label = "false"

[[record]]
primary_sequence = "FSAPNCCFRCG [PPP2CA_Y265_Y265C_YF]"
assigned_label = "false"

[[record]]
primary_sequence = "CRAVKYLQMVR [AVPR2_Y117_G122R]"
assigned_label = "false"

[[record]]
primary_sequence = "ARSHIYTFASC [MEFV_Y741]"
assigned_label = "true"

[[record]]
primary_sequence = "ARRHPYFYAPE [ALB_Y172]"
assigned_label = "false"

[[record]]
primary_sequence = "SHEELYKWFTS [DYNC1H1_Y3051]"
assigned_label = "true"

[[record]]
primary_sequence = "ADARMYGVLPW [PLP1_Y207]"
assigned_label = "true"

[[record]]
primary_sequence = "DGFIDYAEFAK [MCFD2_Y138_YF]"
assigned_label = "false"

[[record]]
primary_sequence = "RGDTVYTVNCM [KBTBD13_Y404_R408C]"
assigned_label = "false"

[[record]]
primary_sequence = "KRAIGHYSATS [FAM120A_Y327_Y327H]"
assigned_label = "false"

[[record]]
primary_sequence = "DENCFYTRAAS [RPS19_Y54_W52C]"
assigned_label = "false"

[[record]]
primary_sequence = "KLQKYYRQNPD [EHHADH_Y683]"
assigned_label = "false"

[[record]]
primary_sequence = "KKFPDYIQSAM [SGMS2_Y59_I62S_YF]"
assigned_label = "false"

[[record]]
primary_sequence = "GISDEYHMIRH [GCDH_Y398_V400M]"
assigned_label = "false"

